- measurement-target: human LPA1 receptor (Homo sapiens (Human), UniProt Q92633)
- Sequence (Q92633 whole entry): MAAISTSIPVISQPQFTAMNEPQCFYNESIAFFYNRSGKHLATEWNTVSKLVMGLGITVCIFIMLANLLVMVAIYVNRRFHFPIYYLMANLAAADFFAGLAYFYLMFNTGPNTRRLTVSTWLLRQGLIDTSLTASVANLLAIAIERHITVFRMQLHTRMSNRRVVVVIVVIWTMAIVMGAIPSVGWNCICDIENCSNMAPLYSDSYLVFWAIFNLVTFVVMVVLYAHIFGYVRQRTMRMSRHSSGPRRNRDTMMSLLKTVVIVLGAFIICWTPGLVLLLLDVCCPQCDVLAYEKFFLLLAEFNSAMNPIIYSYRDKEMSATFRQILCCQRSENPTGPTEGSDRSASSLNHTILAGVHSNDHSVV
- run-description: Beta-arrestin recruitment assay to determine IC50 values for human LPAR1
- measurement-parameters: antagonist mode, Tango EDG2-bla U2OS cells, LPA 18:1 500 nM final
measured-quantity: log10 of IC50 (log10 of the value in nM)
Hello, just confirming the data are log10 of IC50 with units of nM.

- Cc1ccc(NC(=O)C2(c3ccccc3C(C)C)CN(CC(=O)O)C2)c(OC(F)F)n1 [Ex 11-12]: 1.34
- Cc1ccc(NC(=O)C2(c3ccccc3C3CCOCC3)CN(S(N)(=O)=O)C2)c(OC(F)F)n1 [Ex 30]: 1.52
- Cc1ccc(C2(C(=O)Nc3ccc(C)nc3OC(F)F)CNC2)c(C(C)C)c1 [Ex 35]: 1.88
- Cc1ccc(NC(=O)C2(c3ccccc3C(C)C)CN(C[C@@H](O)CNC(=O)CO)C2)c(OC(F)F)n1 [Ex 11-86]: 1.00
- Cc1ccc(NC(=O)C2(c3ccccc3C(C)C)CN(C(=O)OCC(C)(C)C(=O)O)C2)c(OC(F)F)n1 [Ex 14-10]: 0.60
- COC(CC(=O)O)S(=O)(=O)N1CC(C(=O)Nc2ccc(C)nc2OC(F)F)(c2ccccc2C(C)C)C1 (stereo not shown) [Ex 13-27]: 1.45

Endpoint output: log10 of IC50 of Cc1ccc(NC(=O)C2(c3nccnc3C(C)C)CNC2)c(OC(F)F)n1 [Ex 68] . Value?
3.88

Endpoint output: log10 of IC50 of Cc1ccc(NC(=O)C2(c3ccccc3C(C)C)CN(C(=O)OCC(=O)O)C2)c(OC(F)F)n1 [Ex 14-1] . Value?
1.08

Endpoint output: log10 of IC50 of Cc1cnc(NC(=O)C2(c3ccccc3C(C)C)CN(C(=O)OCC(=O)O)C2)c(OC(F)F)c1 [Ex 83-2] . Value?
1.94

Endpoint output: log10 of IC50 of Cc1ccc(NC(=O)C2(c3ccccc3C(C)C)CN(C(=O)CC3CCN(CCF)CC3)C2)c(OC(F)F)n1 [Ex 12-141] . Value?
2.31

Endpoint output: log10 of IC50 of Cc1ccc(NC(=O)C2(c3ccccc3C3CCC3)CNC2)c(OC(F)F)n1 [Ex 24] . Value?
1.49

Endpoint output: log10 of IC50 of COC(=O)c1ccc(CN2CC(C(=O)Nc3ccc(C)nc3OC(F)F)(c3ccccc3C(C)C)C2)cn1 [Ex 11-52] . Value?
1.90

Endpoint output: log10 of IC50 of COC(=O)C(C)(C)CN1CC(C(=O)Nc2ccc(C)nc2OC(F)F)(c2ccccc2C(C)C)C1 [Ex 11-24] . Value?
2.45

Endpoint output: log10 of IC50 of COC(=O)CC1(CN2CC(C(=O)Nc3ccc(C)nc3OC(F)F)(c3ccccc3C(C)C)C2)CC1 [Ex 11-67] . Value?
2.51

Endpoint output: log10 of IC50 of Cc1ccc(NC(=O)C2(c3ccccc3C(C)C)CN(C(=O)N3CCOCC3)C2)c(OC(F)F)n1 [Ex 17-27] . Value?
2.32

Endpoint output: log10 of IC50 of Cc1ccc(NC(=O)C2(c3ccccc3C3CCOCC3)CNC2)c(OC(F)F)n1 [Ex 28] . Value?
1.36

###

- measurement-target: human LPA1 receptor (Homo sapiens (Human), UniProt Q92633)
- run-description: Beta-arrestin recruitment assay to determine IC50 values for human LPAR1
- measurement-parameters: antagonist mode, Tango EDG2-bla U2OS cells, LPA 18:1 500 nM final
The following compounds are listed with their measured pIC50 values.
# pIC50 = -log10(concentration in molar units)

Examples with their reported pIC50 follow.
• Cc1ccc(NC(=O)C2(c3ccccc3C(C)C)CN(C(=O)CN3CC(O)C3)C2)c(OC(F)F)n1 [Ex 12-53] = 7.77
• Cc1ccc(NC(=O)C2(c3ccccc3C(C)C)CN(c3ccc(C(=O)O)cn3)C2)c(OC(F)F)n1 [Ex 18-2] = 8.22
• Cc1cnc(NC(=O)C2(c3ccccc3C(C)C)CN(S(=O)(=O)CCC(=O)O)C2)c(OC(F)F)c1 [Ex 80-2] = 6.96

Query for human LPA1 receptor (Homo sapiens (Human), UniProt Q92633): what pIC50 does the record show for Cc1ccc(NC(=O)C2(c3ccccc3C(C)C)CCN(C(=O)C[C@H](O)C(=O)O)CC2)c(OC(F)F)n1 [Ex 12-37] ?
7.66

Query for human LPA1 receptor (Homo sapiens (Human), UniProt Q92633): what pIC50 does the record show for COC(=O)C(C)(C)CNC(=O)N1CC(C(=O)Nc2ccc(C)nc2OC(F)F)(c2ccccc2C(C)C)C1 [Ex 17-16] ?
8.05

Query for human LPA1 receptor (Homo sapiens (Human), UniProt Q92633): what pIC50 does the record show for Cc1ccc(NC(=O)C2(c3ccccc3C(C)C)CCN(C(N)=O)CC2)c(OC(F)F)n1 [Ex 17-20] ?
7.96

Query for human LPA1 receptor (Homo sapiens (Human), UniProt Q92633): what pIC50 does the record show for Cc1ccc(NC(=O)C2(c3ccccc3C(C)C)CN(C(=O)CCOCC(=O)O)C2)c(OC(F)F)n1 [Ex 12-110] ?
7.18

Query for human LPA1 receptor (Homo sapiens (Human), UniProt Q92633): what pIC50 does the record show for COc1ccc(NC(=O)C2(c3ccccc3C(C)C)CN(C(=O)OC(C)(C)C)C2)c(OC)n1 [Ex 6-1] ?
6.22

Query for human LPA1 receptor (Homo sapiens (Human), UniProt Q92633): what pIC50 does the record show for Cc1ccc(NC(=O)C2(c3ccccc3C(C)C)CN(C(=O)c3cn[nH]c3)C2)c(OC(F)F)n1 [Ex 12-15] ?
7.44

###

The following compounds are listed with their measured log10 of IC50 values.
- measurement-target: human LPA1 receptor (Homo sapiens (Human))
- run-description: Beta-arrestin recruitment assay to determine IC50 values for human LPAR1
- Assay type: cell-based
- measurement-parameters: antagonist mode, Tango EDG2-bla U2OS cells, LPA 18:1 500 nM final
Hello, just confirming the data are log10 of IC50 with units of nM.

Examples with their reported log10 of IC50 follow.
* COc1cnc(NC(=O)C2(c3ccccc3C(C)C)CNC2)c(OC)c1 | 3.64
* CC(C)c1ccccc1C1(C(=O)Nc2ncc(Cl)cc2OC(F)F)CN(CCC(C)(C)C(=O)O)C1 | 1.23

Query for human LPA1 receptor (Homo sapiens (Human)): what log10 of IC50 does the record show for CC(=O)NS(=O)(=O)N(C)CC(=O)N1CC(C(=O)Nc2ccc(C)nc2OC(F)F)(c2ccccc2C(C)C)C1 ?
1.67

Query for human LPA1 receptor (Homo sapiens (Human)): what log10 of IC50 does the record show for COc1nc(C)ccc1NC(=O)C1(c2ccccc2C(C)C)CN(C(=O)CCC(=O)O)C1 ?
1.81

Query for human LPA1 receptor (Homo sapiens (Human)): what log10 of IC50 does the record show for Cc1ccc(NC(=O)C2(c3ccccc3C(C)C)CN(C(=O)CCNCCO)C2)c(OC(F)F)n1 ?
1.76

Query for human LPA1 receptor (Homo sapiens (Human)): what log10 of IC50 does the record show for COC(=O)CCCN1CC(C(=O)Nc2ccc(C)nc2OC(F)F)(c2ccccc2C(C)C)C1 ?
1.08

Query for human LPA1 receptor (Homo sapiens (Human)): what log10 of IC50 does the record show for Cc1ccc(NC(=O)C2(c3ccccc3C(C)C)CN(C3COC3)C2)c(OC(F)F)n1 ?
0.78

Query for human LPA1 receptor (Homo sapiens (Human)): what log10 of IC50 does the record show for Cc1ccc(NC(=O)C2(c3c(C)cccc3C(C)C)CNC2)c(OC(F)F)n1 ?
1.52

###

- measurement-target: human LPA1 receptor (Homo sapiens (Human), UniProt Q92633)
- run-description: Beta-arrestin recruitment assay to determine IC50 values for human LPAR1
- measurement-parameters: antagonist mode, Tango EDG2-bla U2OS cells, LPA 18:1 500 nM final
Categorized via IC50: low value (below 10 nM), medium value (10 nM to below 40 nM), high value (40 nM or more)

Solved cases (3 shown):
* Cc1ccc(NC(=O)C2(c3ccccc3C(C)C)CN(C(=O)CS(=O)(=O)O)C2)c(OC(F)F)n1 | medium value
* Cc1ccc(NC(=O)C2(c3ccccc3C(C)C)CN(C(=O)O[C@H](C)C(=O)O)C2)c(OC(F)F)n1 | low value
* COC(=O)CCC(=O)N1CCC(C(=O)Nc2ccc(C)nc2OC(F)F)(c2ccccc2C(C)C)CC1 | low value

Which of the defined bands does the recorded IC50 of Cc1ccc(NC(=O)C2(c3ccccc3C(C)C)CN(CCC(C)(C)C(=O)NS(C)(=O)=O)C2)c(OC(F)F)n1 sit within?
medium value

Which of the defined bands does the recorded IC50 of Cc1ccc(NC(=O)C2(c3c(F)cccc3C(C)C)CNC2)c(OC(F)F)n1 sit within?
low value

Which of the defined bands does the recorded IC50 of Cc1ccc(NC(=O)C2(c3ccccc3C(C)C)CN(Cc3ccnn3C)C2)c(OC(F)F)n1 sit within?
high value

Which of the defined bands does the recorded IC50 of Cc1ccc(NC(=O)C2(c3ccccc3C(C)C)CN(CC#N)C2)c(OC(F)F)n1 sit within?
low value
